For each record, write down the corresponding melting point.

Bench note: what melting point did O=C1NC(=O)C2C1C1CCC2(c2ccc([N+](=O)[O-])cc2)O1 (centres unmarked) show?
207 to 209 °C

For each of the items listed, what is its melting point?
1. O=C1NC(=O)C2C1C1CCC2(CCCO)O1 (centres unmarked)
2. COC(CO)CN1C(=O)[C@@H]2[C@H](C1=O)[C@H]1CC[C@@H]2O1 (some centres unmarked)
3. O=C(O)CCCCCCCNC(=O)C1C(C(=O)O)[C@@H]2CC[C@H]1O2 (stereo in doubt)
4. CN(C)CCOc1ccc(N2C(=O)C3C(C2=O)[C@H]2CC[C@@H]3O2)cc1 (some centres unmarked)

["164 to 166 °C", "96 to 97 °C", "125 to 126 °C", "145 to 146 °C"]

* * *

For each record, write down the corresponding melting point.

For each of the items listed, what is its melting point?
1. Cn1ccc2c(CNC(=O)C3C(C(=O)O)[C@@H]4CC[C@H]3O4)cccc21 (stereo in doubt) [Compound 80]
2. O=C1C2C(C(=O)N1c1ncccc1OCc1ccccc1)[C@H]1CC[C@@H]2O1 (stereo partly drawn) [Compound 77]
3. O=C1NC(=O)C2C1C1CCC2(c2ccccc2)O1 (stereo not drawn)
4. O=C(O)C1C(C(=O)NCC2OCCc3sccc32)[C@H]2CC[C@@H]1O2 (stereo partly drawn) [Compound 81]
5. Nc1ccccc1CC12CCC(O1)C1C(=O)NC(=O)C12 (stereo not drawn)
6. O=C(O)C1C(C(=O)NC2CCN(Cc3ccccc3)CC2)[C@H]2CC[C@@H]1O2 (stereo in doubt)
7. COc1ccc(CC23CCC(O2)C2C(=O)NC(=O)C23)cc1OC (stereo not drawn)

1: 161 °C; 2: 99 to 102 °C; 3: 171 to 172 °C; 4: 159 to 160 °C; 5: 159 to 160 °C; 6: 124 to 125 °C; 7: 155 to 157 °C

For each of the items listed, what is its melting point?
1. COc1ccc(CC23CCC(O2)C2C(=O)NC(=O)C23)cc1 (stereo not drawn)
2. C=CCCN1C(=O)C2C(C1=O)[C@H]1CC[C@@H]2O1 (stereo partly drawn)
3. O=C1C2C(C(=O)N1CCO)[C@H]1CC[C@@H]2O1 (stereo partly drawn) [Compound 15]
4. CCCCCCCCCCCCCCCCCCC12CCC(O1)C1C(=O)NC(=O)C12 (stereo not drawn)
5. CN(C)CCOc1ccccc1N1C(=O)C2C(C1=O)[C@H]1CC[C@@H]2O1 (stereo partly drawn) [Compound 79]
6. O=C1NC(=O)C2C1C1CCC2(N2CCOCC2)O1 (stereo not drawn)
7. CC(C)(C)c1ccccc1NC(=O)C1C(C(=O)O)[C@@H]2CC[C@H]1O2 (stereo partly drawn)

83 to 85 °C
64 to 65 °C
164 to 166 °C
62 to 64 °C
113 to 115 °C
169 to 171 °C
163 to 164 °C

* * *

For each record, write down the corresponding melting point.

Bench note: what melting point did O=C1NC(=O)C2C1C1CCC2(CCCCCCO)O1 (centres unmarked) show?
56 to 57 °C

Bench note: what melting point did O=C(O)C1C(C(=O)N2CCCCC2)[C@H]2CC[C@@H]1O2 (some centres unmarked) show?
140 to 142 °C

Bench note: what melting point did C=CCC12CCC(O1)C1C(=O)NC(=O)C12 (centres unmarked) show?
116 to 117 °C

Bench note: what melting point did O=C1NC(=O)C2C1C1CCC2(C2CCCCC2)O1 (centres unmarked) show?
97 to 99 °C

Bench note: what melting point did CCCCCCCCCCCCCCC12CCC(O1)C1C(=O)NC(=O)C12 (centres unmarked) show?
45 to 46 °C

For each of the items listed, what is its melting point?
1. CCCCCCCCCCCCC12CCC(O1)C1C(=O)NC(=O)C12 (centres unmarked)
2. CCC12CCC(O1)C1C(=O)NC(=O)C12 (centres unmarked)
3. CCCCCCCCNC(=O)C1C(C(=O)O)[C@@H]2CC[C@H]1O2 (stereo in doubt)
4. CCc1ccccc1NC(=O)C1C(C(=O)O)[C@@H]2CC[C@H]1O2 (stereo in doubt)
5. CCC(C)C12CCC(O1)C1C(=O)NC(=O)C12 (centres unmarked)

35 to 37 °C
166 to 169 °C
131 °C
171 to 172 °C
44 to 46 °C

Bench note: what melting point did CCCCCCCCCCNC(=O)C1C(C(=O)O)[C@@H]2CC[C@H]1O2 (stereo in doubt) show?
110 to 111 °C

The reported numbers originate from patent US20100137294A1.
